Where do the numbers come from? From PubChem BioAssay.

response by entry:
# assay_method_text: yeast V-ATPase proton transport modulators, S. cerevisiae, pHLuorin, HTS validation (AID 504600);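 also: plate controls were DMSO for no effect and reference compound for full effect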
# reported_conditions: S. cerevisiae pHLuorin cytosolic pH, at 10 µM, hits give high values
Hi! Could you send only the number? It should be in %, unit omitted.

Example cases with answers are listed next.
Which response is listed for `Nc1ccc([As](=O)(O)O)cc1` ?
-3.63

Quick one: response of NCC(O)c1ccc(O)cc1 (configuration not stated) ?
2.02

response lookup needed for CC1CCC[C@H](O)CCCCCc2cc(O)cc(O)c2C(=O)O1 (some centres not stated) , thanks.
6.16

Continuing:
// response lookup, key: CCCC[N+]1(C)[C@@H]2CC(OC(=O)[C@H](CO)c3ccccc3)C[C@H]1[C@@H]1O[C@@H]12 (some centres not stated)
-3.56

Entry `CCN(CC)C(=O)N[C@H]1C[C@@H]2c3cccc4[nH]cc(c34)C[C@H]2N(C)C1` : reported response = ?
-1.97

Would you kindly share the measured response for `C[C@]12CCC(=O)C=C1CC[C@@H]1[C@@H]2C(=O)C[C@]2(C)C(=O)CC[C@@H]12` ?
-0.42

Value lookup for response; key = `O=C(O)CCCc1ccc(N(CCCl)CCCl)cc1`
-5.67

What measured response goes with COc1ccc2c(c1)CC1(CN2C)C(=O)NC(=O)N(CCc2ccccc2)C1=O (configuration not stated) ?
1.95

Name the reported response value associated with the compound `CCOC(=O)C1=C(C)OC(N)=C(C(=O)OCC)[C@@]12C(=O)N(CC(N)=O)c1ccccc12`
1.98

* * *

Items are presented alongside their recorded inhibition.
# system_name: Botulinum neurotoxin type A (Clostridium botulinum) (UniProt P0DPI0)
# assay_method_text: BoNT/A light chain protease inhibitors, biochemical, multiplex microsphere flow cytometry, validation set (AID 588460)
# reported_conditions: at 10 µM, hits give high values
Record the value in %, omitting the unit from your answer.

What does the data say about its inhibition? Entry: `Cc1ccc(/C(=C\CN2CCCC2)c2ccccn2)cc1`
0.3

Further cases:
Give the measured inhibition of `Cc1oc(/C=N/NC(=O)CC2(C)OCCO2)cc1Br` .
0.6

Endpoint output: inhibition of `Cc1ccccc1NC(=O)NCCc1c[nH]c2ccccc12` . Value?
-0.2

* * *

# system_name: Botulinum neurotoxin type A (Clostridium botulinum) (UniProt P0DPI0)
# assay_method_text: BoNT/A light chain protease inhibitors, biochemical, multiplex microsphere flow cytometry, validation set (AID 588460)
# reported_conditions: at 10 µM, hits give high values
Catalogue of inhibition readings, one per entry.
Quick reminder: number only, in %, skip the unit.

Some solved cases for reference:
Give its inhibition value. Item: COc1ccc(C2C3C(C)=NN=C3CC(C)(O)C2C(C)=O)cc1 (configuration not stated)
-0.6

Reported inhibition for `O=C(O)/C=C/c1cnc[nH]1` : what is it?
-0.2

Look at this compound and give its reported inhibition. COc1ccc(C2(CCN=Cc3ccc(N(C)C)cc3)CCOC(C)(C)C2)cc1 (configuration not stated)
1.6

What value of inhibition has been recorded for this entry: `COc1cccc(N2C(=O)[C@H]3C(C(=O)c4cnccn4)=NN[C@H]3C2=O)c1`
-0.2

Please report the recorded inhibition for Cc1nc(C2CC(=O)OC23CCCCC3)cs1 (configuration not stated) .
-0.7

Further cases:
Return reported inhibition; argument: `O=C(Nc1cccc(Oc2c(F)c(F)c(F)c(F)c2F)c1)N1C[C@@H]2C[C@@H](C1)c1cccc(=O)n1C2`
1.4

Record request: inhibition value, item `CN(CCCN1CCOCC1)Cc1cn(C)nc1-c1ccccc1F`
-0.8

Which inhibition reading was recorded for the compound CC(C)(C)C(O)C(Oc1ccc(Cl)cc1)n1cncn1 (configuration not stated) ?
0

Reported inhibition for CC(C)C1CC(CCNCc2ccc(N(C)C)cc2)(c2ccccc2)CCO1 (configuration not stated) : what is it?
-1.8

* * *

# Tested on: Botulinum neurotoxin type F light chain protease (Clostridium botulinum)
# assay_method_text: Botulinum neurotoxin type F light chain protease inhibition, multiplex microsphere flow cytometry, validation set (AID 588459)
# reported_conditions: multiplex microsphere protease substrate cleavage assay, at 10 µM, hits give high values
measured_metric: inhibition (%)
Just the number please, in %, no unit attached.

Kindly state the measured inhibition obtained for C/C(=N\NC(=O)C1(C)CC1(Br)Br)c1ccc([N+](=O)[O-])cc1 (configuration not stated) with Botulinum neurotoxin type F light chain protease (Clostridium botulinum).
2.6

I'm curious: which inhibition was measured for `CC(C)CCc1noc(CN2CCC(CCN3CCCC3=O)CC2)n1` tested on Botulinum neurotoxin type F light chain protease (Clostridium botulinum)?
1

Reported inhibition for Botulinum neurotoxin type F light chain protease (Clostridium botulinum), given `CC(C)=CCC(C)(C)/C=N/NC(N)=O` ?
1.8

Which measured inhibition belongs to CC1(c2ccccc2)CC(C)(C)N2C(=O)C(=O)c3cccc1c32 (configuration not stated) , tested on Botulinum neurotoxin type F light chain protease (Clostridium botulinum)?
0.5

inhibition of `COCCNC(=O)CSc1ccc(Cl)cc1` on Botulinum neurotoxin type F light chain protease (Clostridium botulinum)?
1.8

Others:
Item: `Cc1nc2ccccc2c(=O)n1-c1ccc(C(=O)O)cc1` Test system: Botulinum neurotoxin type F light chain protease (Clostridium botulinum) Read-out: inhibition Value: ?
0.9

Please state recorded inhibition (tested on Botulinum neurotoxin type F light chain protease (Clostridium botulinum)) of `COc1ccc(CCNC(=O)c2c(O)c3c([nH]c2=O)CCCC3)cc1`
2.6

So what inhibition did `O=C(NC(=S)Nc1ccc2c(c1)OCCO2)c1ccccc1F` get with Botulinum neurotoxin type F light chain protease (Clostridium botulinum)?
2.3

Tell me reported inhibition for `c1ccc(Cn2nnc3cnccc32)cc1` , tested with Botulinum neurotoxin type F light chain protease (Clostridium botulinum).
3.6

Field: inhibition (Botulinum neurotoxin type F light chain protease (Clostridium botulinum)). Entry: CC(=O)OC1C2CCC1C(N1CCCC1)CC2 (configuration not stated)
-2.3

Given the entry CCOc1ccc(N2C(=O)CC(NCCNc3ccc([N+](=O)[O-])cn3)C2=O)cc1 (configuration not stated) , what inhibition was observed with Botulinum neurotoxin type F light chain protease (Clostridium botulinum)?
0.9

Could you share what inhibition was measured for `COc1cc(CNCc2ccc(OC)c(OC)c2OC)cc(OC)c1` , tested on Botulinum neurotoxin type F light chain protease (Clostridium botulinum)?
0.5

* * *

# system_name: Lethal factor (Bacillus anthracis)
# assay_method_text: Lethal factor protease inhibitors, Bacillus anthracis, multiplex microsphere cleavage assay, validation set (AID 588461)
# reported_conditions: flow cytometry, at 10 µM, hits give high values
measured_metric: inhibition (%)
Please give a number only; it is taken to be in %.

Example entries begin here.
Recorded inhibition for `O=c1[nH]cc(F)c(=O)[nH]1` , please?
-1.9

What value of inhibition has been recorded for this entry: `COC(=O)c1[nH]c2ccc(C)cc2c1NC(=O)CN1CCc2cc(OC)c(OC)cc2C1`
2.1

Requested field: inhibition. Item: `Cc1cccc(-n2c(Cc3ccccc3)n[nH]c2=S)c1`
-2.9

Recorded inhibition for CN(C)c1ccc(CNCCC(Cc2ccccc2)c2ccco2)cc1 (stereo not drawn) , please?
-8.8

Sample CC(CN1c2ccccc2Sc2ccccc21)N(C)C (stereo not drawn) — what was its inhibition?
-11.5

Here's the next entry for you.
inhibition for COc1ccccc1C1(CC(=O)N2CCCCC2)CCOC(C(C)C)C1 (stereo not drawn) ?
-3.3

* * *

# system_name: Botulinum neurotoxin type A (Clostridium botulinum) (UniProt P0DPI0)
# assay_method_text: BoNT/A light chain protease inhibitors, biochemical, multiplex microsphere flow cytometry, validation set (AID 588460)
# reported_conditions: at 10 µM, hits give high values
measured_metric: inhibition (%)
Provide only the numeric value, understood in %.

Return reported inhibition; argument: `CCN(CC)CCNC(=O)c1cc(Cl)c(N)cc1OC`
-0.2

For the compound `O=C(/C=C/c1ccccc1)NCC1(c2ccccc2)CCOCC1` , what inhibition is on record?
0.4

Please give the measured inhibition for this compound: CCOC(=O)C1NN=C(C(=O)c2ccccc2)C1c1ccc(Cl)cc1 (stereo not given)
1.4

* * *

# inhibition annotations
# system_name: ATP-binding cassette sub-family B member 6 (Homo sapiens)
# assay_method_text: ABCB6 transporter inhibitors, pilot screen, K562-ABCB6 cells, flow cytometry, validation set (AID 588550);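 also: 0% = DMSO wells and 100% = benzethonium chloride 70 µM positive control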
# reported_conditions: K562-ABCB6 porphyrin accumulation, 1 h, at 10 µM, hits give high values
Express your answer in %, writing the number without its unit.

Endpoint output: inhibition of `[N-]=[N+]=CC(=O)OC[C@H](N)C(=O)O` . Value?
5

Need inhibition, item OC1CCCCC1N1CCC(c2ccccc2)CC1 (stereo unspecified)
15

Need inhibition of `C[C@H]1CCC[C@H](O)CCCCCc2cc(O)cc(O)c2C(=O)O1` , thanks.
9

// returns reported inhibition for input `CCOC(=O)c1cc2c(cn1)[nH]c1ccccc12`
-6

Item under review: `O=c1c2ccccc2[se]n1-c1ccccc1` . Reported inhibition?
5

Next:
// query inhibition value for entry Clc1ccc(C2NCCc3[nH]cnc32)cc1 (stereo unspecified)
1

Please report the recorded inhibition for O=c1[nH]c(=S)n(-c2ccccc2)c(O)c1/C=N/N1CCCCC1c1cccnc1 (stereo unspecified) .
0

Which inhibition value is on record for CC12CN3CC(C)(CN(C1)C3c1cccnc1)C2=O (stereo unspecified) ?
7

GET /values?readout=inhibition&item= `O=C1C=Cc2ccccc2C1=O`
7

Bench note: what inhibition did COP(=O)(OC)C(O)C(Cl)(Cl)Cl (stereo unspecified) show?
-2

Bench note: what inhibition did `Cc1cc(Cl)ccc1OCC(=O)O` show?
10

Report inhibition for `COc1cc(/C=C2\C(=O)NC(=O)N(c3ccccc3)C2=O)c([N+](=O)[O-])cc1OC` please.
-21

Fill in: inhibition of `COP(=S)(OC)SCN1C(=O)c2ccccc2C1=O` is ___
-1
